# Tested on: MOLT-4 leukemia
# protocol summary: NCI-60 one-dose screen, 48 h
# test context: 10 µM unless noted
This is part of a sample that, as a whole, favours compounds with a hit. Of some 83,000 tested, about 20% had one in any assay. The source made the active and inactive calls. Rule for the calls: active = growth percent below 10; inactive = the rest.
Hello, when you answer, please use one of the following outcomes: active, inactive

Answered cases to consult:
{"compound": "COc1ccc(-c2n[nH]c(=O)c3nc(NC(=S)Nc4ccc(Oc5ccccc5)cc4)sc23)cc1", "class name": "inactive"}
{"compound": "CSC1=Nc2c(c(C)c(-c3ccccc3)n2CCCC(=O)O)C2=NC(=O)C[C@H](C)N12", "class name": "inactive"}
{"compound": "O=C(N=Nc1c(O)[nH]c2ccccc12)Nc1ccc(F)cc1", "class name": "inactive"}
{"compound": "C[C@H](CCCC(=O)NCC#CCN1CCN(C)CC1)[C@H]1CC[C@H]2[C@@H]3CC[C@@H]4CC(=O)CC[C@]4(C)[C@H]3CC[C@]12C", "class name": "inactive"}
{"compound": "COc1cnc2c(c1)C(=O)c1c-2n(CCCCl)c(=O)c2ccncc12", "class name": "inactive"}
{"compound": "O=C(Nc1ccc(Br)cc1)C1=NCCCCN1", "class name": "inactive"}

In the following, a different compound is considered.
Ask: What is the recorded call for this compound in the test? CN(C)CCCC1(c2ccc(F)cc2)OCc2cc(-c3cc4ccccc4s3)ccc21 (configuration not stated)
Result: active

----------
# Test system: CAKI-1 renal
# protocol summary: NCI-60 one-dose screen, 48 h
# test context: 10 µM unless noted
The panel holds about 83,000 compounds, 20% with a hit somewhere; the sample as a whole holds those more often. Activity calls are given as the source filed them. How the source made its calls: active means growth percent below 10; inactive means the rest.
Hello, when you answer, please use one of the following outcomes: active, inactive

{"compound": "COc1ccc(/C=C/C(=O)c2cc(OC)c(OC)c(OC)c2)cc1OCC(=O)Nc1nc2ccc(OC(F)(F)F)cc2s1", "class name": "active"}
{"compound": "C=C(C)[C@@H]1CC[C@]2(C)[C@H](CC=C3[C@@H]4CC(C)(C)CC[C@]4(CO)CC[C@]32C)[C@@]1(C)CCCN", "class name": "inactive"}
{"compound": "CCCn1nc(C(=O)N(C)Cc2ccccc2)c2c1CCC(N1CCc3ccccc31)C2 (stereo not drawn)", "class name": "inactive"}
{"compound": "CC(=O)c1ccc(Nc2nccc(-c3ccc4ccccc4c3)n2)cc1", "class name": "inactive"}
{"compound": "Cc1ccc(CNc2c3ccccc3nc3ccccc23)cc1", "class name": "inactive"}

Ask: What is the recorded call for this compound in the test? Cc1cccc(Oc2ccc(Nc3ncnc4ccc(NC(=O)CN5CCN(C)CC5)cc34)cc2Cl)c1
Result: inactive

Ask: What is the recorded call for this compound in the test? S=c1nc2oc(-c3ccccc3)c(-c3ccccc3)c2c(/N=C\c2ccco2)[nH]1
Result: inactive

Ask: What is the recorded call for this compound in the test? C=C1C(=O)O[C@H]2[C@H]1CC/C(COC(=O)/C=C\C(=O)NCc1ccc(Cn3c(=O)sn(CCCl)c3=O)cc1)=C\CC[C@@]1(C)O[C@@H]21
Result: inactive

----------
# Test system: 786-0 renal
# protocol summary: NCI-60 one-dose screen, 48 h (100 = growth as untreated, 0 = no growth, -100 = all killed)
# test context: 10 µM unless noted
This is part of a sample that, as a whole, favours compounds with a hit. Of some 83,000 tested, about 20% had one in any assay.
growth values for the molecules below.
Express the result in % but write the number alone.

Guide cases for growth, answers given:
{"molecule": "Clc1ccc(-c2cc(-c3ccccc3)nc(NCCNc3ccnc4cc(Cl)ccc34)n2)cc1", "growth / %": -90.9}
{"molecule": "C#CCNC(=O)[C@]1(C)CCC[C@@]2(C)[C@H]1CC=C1C=C(C(C)C)CC[C@@H]12", "growth / %": 96.8}
{"molecule": "O=C(/C=C/c1ccc(Oc2ccc(Br)cc2)cc1)c1ccc(Br)cc1", "growth / %": 101}
{"molecule": "CCOC(=O)C(=Cc1ccc(-c2ccccc2)cc1)C(=O)OCC", "growth / %": 43.1}
{"molecule": "COc1ccc2c(c1)c(/C(O)=C1\\COC(=O)C1=O)cn2Cc1ccc(F)cc1", "growth / %": 96.1}

Ask: Please report the recorded growth for Cc1ccc(-c2csc(N(C(=O)N3CCN(c4cc5c(cc4F)c(=O)c(C(=O)O)cn5C4CC4)CC3)c3ccccc3)n2)cc1 .
Result: 4.6

Ask: Please report the recorded growth for CCOC(=O)c1cnc2c(N=Nc3ccc(OC)cc3)c(N)nn2c1N .
Result: 104

----------
growth values for the compounds below.
# Test system: A549/ATCC NSCLC
# protocol summary: NCI-60 one-dose screen, 48 h (100 = growth as untreated, 0 = no growth, -100 = all killed)
# test context: 10 µM unless noted
About 83,000 compounds went through this panel and 20% of them were active in at least one assay; those are over-represented in the sample as a whole.
Express the result in % but write the number alone.

Guide cases for growth, answers given:
{"compound": "CCCn1cnc2c(c1=N)C(c1ccc(F)cc1)c1sc3c(F)cccc3c1O2 (stereo not drawn)", "study system": "A549/ATCC NSCLC", "growth [%]": 48.1}
{"compound": "CCOC(=O)/C=C1\\S/C(=N\\Nc2cc(=O)[nH]c3ccccc23)N(c2ccccc2)C1=O", "study system": "A549/ATCC NSCLC", "growth [%]": 103}
{"compound": "CN1CCN(CCOc2ccc(-c3cnc4c(-c5ccc(F)cc5)cnn4c3)cc2)CC1", "study system": "A549/ATCC NSCLC", "growth [%]": 27.3}
{"compound": "O=C1c2cccc3cccc(c23)C(=O)N1C/C=C/c1ccc2c3c(cccc13)C(=O)N(CCO)C2=O", "study system": "A549/ATCC NSCLC", "growth [%]": 81.2}
{"compound": "NS(=O)(=O)c1ccc(C(=O)NN2C(=O)c3c(Br)c(Br)c(Br)c(Br)c3C2=O)cc1", "study system": "A549/ATCC NSCLC", "growth [%]": 102}

Ask: Please report the recorded growth for CC(=O)ON1CCCC(P(=O)(OCCSC(=O)C(C)(C)C)OCCSC(=O)C(C)(C)C)C1=O (stereo not drawn) .
Result: 33.5

Ask: Please report the recorded growth for CCOC(=O)c1c(C)nc2ccccc2c1/C=C/c1ccccc1 .
Result: 57.1

Ask: Please report the recorded growth for CC/C=C\C[C@H](O)C/C=C1/C(=O)C=C[C@@H]1C/C=C\CCCC(=O)O .
Result: 75.9

----------
# Tested on: KM12 colon
# protocol summary: NCI-60 one-dose screen, 48 h (100 = growth as untreated, 0 = no growth, -100 = all killed)
# test context: 10 µM unless noted
The panel holds about 83,000 compounds, 20% with a hit somewhere; the sample as a whole holds those more often. Activity calls are given as the source filed them. Rule for the calls: active = growth percent below 10; inactive = the rest.
growth values for the compounds below.

Ask: Please report the recorded growth for CO[C@H](C(=O)[C@@H](O)[C@@H](C)O)[C@@H]1Cc2cc3cc(O[C@H]4C[C@@H](O[C@H]5C[C@@H](O)[C@H](O)C(C)O5)[C@H](O)C(C)(O)O4)cc(O)c3c(O)c2C(=O)[C@H]1O[C@H]1C[C@@H](O[C@H]2C[C@@H](O[C@H]3C[C@@H](OC)[C@H](O)C(C)O3)[C@@H](O)C(C)O2)[C@H](O)C(C)O1 (stereo not given in full) .
Result: 14.9% (inactive)

Ask: Please report the recorded growth for COc1ccc(-c2nc(/C=C3\C(=O)N(C)c4ccccc43)c3ccccn23)cc1 .
Result: 93.7% (inactive)

Ask: Please report the recorded growth for CCOc1c(OC)cc2c(c1O)C(=O)N[C@@H]1[C@@H](O)[C@@H](O)[C@H](O)C[C@@H]21 .
Result: 104% (inactive)

Ask: Please report the recorded growth for Cc1ccc(NC(=O)Cn2c(Br)nc3c2c(=O)n(C)c(=O)n3C)cc1 .
Result: 63.8% (inactive)

Ask: Please report the recorded growth for CCOC(=O)C(=Cc1ccc(-c2ccccc2)cc1)C(=O)OCC .
Result: 36.6% (inactive)

Ask: Please report the recorded growth for CC(C)(C)n1cc(-c2ccnc(NCCCNS(=O)(=O)c3ccc(C(F)(F)F)cc3)c2)c(-c2cccc(F)c2)n1 .
Result: 65.7% (inactive)

Ask: Please report the recorded growth for COc1ccc2c(c1)CCc1[nH]nc(-c3cc(OC)c(OC)c(OC)c3)c1-2 .
Result: 7.02% (active)

Ask: Please report the recorded growth for O=C1c2cccc3cccc(c23)C(=O)N1C/C=C/c1ccc2c3c(cccc13)C(=O)N(CCO)C2=O .
Result: 76.2% (inactive)

Ask: Please report the recorded growth for N#Cc1nc(-c2ccccc2)oc1S(=O)(=O)N1CCN(c2ccc(F)cc2)CC1 .
Result: 81.9% (inactive)

Ask: Please report the recorded growth for COc1ccc2nc(Cl)c(/C=C3\CC(c4ccccc4)=NN(c4ccccc4)C3=O)cc2c1 .
Result: 90.3% (inactive)
